Task for the reader: assign each of the following compounds its reported T/C.
# Test system: L1210 leukemia ip in BDF1 mice, survival T/C
# Procedure Text: NCI In Vivo Anticancer Drug Screen. Data for tumor model L1210 Leukemia (intraperitoneal) in B6D2F1 (BDF1) mice
# Assay Context: endpoint: mean survival time; dose: 200.0 mg/kg/injection; schedule: Q04DX003 (ip); vehicle: Klucel (hydroxypropylcellulose) (HPC); higher = longer survival
Toxic doses and inconclusive results are not listed.

* Nc1ccc2c(c1)C(=O)c1cc(N)ccc1-2 | 103 % of control
* O=[N+]([O-])OCc1c(Cl)nc(Cl)c(Cl)c1Cl | 100 % of control
* CCCCCCCCCCCCNC(=S)NCCCCCCCCCCCC | 92 % of control

Could you report T/C for every entry in the following list?
1. O=C(O)C1CCC(CC23CC4CC(CC(C4)C2)C3)CC1 (configuration not stated)
2. CCOC(=O)NCS(=O)(=O)c1ccccc1-c1ccccc1

Result:
["105 % of control", "104 % of control"]

* * *

# Tested on: L1210 leukemia ip in BDF1 mice, survival T/C
# Procedure Text: NCI In Vivo Anticancer Drug Screen. Data for tumor model L1210 Leukemia (intraperitoneal) in B6D2F1 (BDF1) mice
# Assay Context: endpoint: mean survival time; dose: 400.0 mg/kg/injection; schedule: Q01DX001 (ip); vehicle: saline; higher = longer survival
Toxic doses and inconclusive results are not listed.
Measurement Name: T/C

Could you report T/C for every entry in the following list?
1. Cc1ccc2c([nH]1)c(C)cc1nc3ccccc3c12
2. CCCCCCCC[As](=O)(O)CCCCCCCC
3. COC(=O)C1(C)COP(=O)(NC2CCCCC2)OC1 (stereo not drawn)
4. CN(C)P1(=O)NCCCO1 (stereo not drawn)
5. NC12C3(Cl)C4(Cl)C5(OCCO5)C5(Cl)C3(Cl)C1(Cl)C5(Cl)C24Cl (stereo not drawn)
6. CCCCCCCCCCCCCCCCC[As](=O)(O)CCCCCCCCCCCCCCCCC
7. O=C1CSC(=NCCN=C2NC(=O)CS2)N1
8. COC(C(OC(C)=O)C(OC(C)=O)C(OC(C)=O)C(COC(C)=O)OC(C)=O)n1cc(C)c(=O)[nH]c1=O (stereo not drawn)

Result:
1: 101 % of control; 2: 107 % of control; 3: 108 % of control; 4: 109 % of control; 5: 102 % of control; 6: 97 % of control; 7: 102 % of control; 8: 91 % of control

* * *

# Tested on: L1210 leukemia ip in BDF1 mice, survival T/C
# Procedure Text: NCI In Vivo Anticancer Drug Screen. Data for tumor model L1210 Leukemia (intraperitoneal) in B6D2F1 (BDF1) mice
# Assay Context: endpoint: mean survival time; dose: 150.0 mg/kg/injection; schedule: Q01DX001 (ip); vehicle: saline; higher = longer survival
Inconclusive results and toxic doses are left out.
Measurement Name: T/C

* CCOC(=O)C(C)(O)C(C)(Cl)c1ccccc1 (stereo not drawn) | 104 % of control

Could you report T/C for every entry in the following list?
1. CCCCC1(C(C)C)C(=O)NC(=O)N(C)C1=O (stereo not drawn)
2. CC1(C)C(=O)NC(=O)C1(C)C
3. CCCCCCCCCCCCOCCC(=O)O
4. CCOC(=O)Nc1cc2[nH]cnc2c(NC(=O)OCC)n1
5. S=C=Nc1cccc(Cl)c1
6. O=S1Oc2ccccc2O1
7. CC(C)(C)OC(=O)CCN1CC1

Result:
1. 105 % of control
2. 103 % of control
3. 94 % of control
4. 101 % of control
5. 96 % of control
6. 103 % of control
7. 104 % of control

* * *

# Test system: L1210 leukemia ip in BDF1 mice, survival T/C
# Procedure Text: NCI In Vivo Anticancer Drug Screen. Data for tumor model L1210 Leukemia (intraperitoneal) in B6D2F1 (BDF1) mice
# Assay Context: endpoint: mean survival time; dose: 25.0 mg/kg/injection; schedule: Q01DX009 (ip); vehicle: saline with Tween-80; higher = longer survival
Inconclusive results and toxic doses are left out.
Task for the reader: assign each of the following compounds its reported T/C.

Could you report T/C for every entry in the following list?
1. CCCCCCCCCCCCSCO
2. CC1(N)CCC(C(C)(C)N)CC1 (configuration not stated)
3. CCN(CC)C(=O)SCCSC(=O)N(CC)CC
4. CCC1(c2ccccc2)C(=O)N(Cl)C(=O)N(Cl)C1=O
5. O=C(c1ccccc1)C(SC(=S)OCc1ccccc1)c1ccccc1 (configuration not stated)
6. CC(=O)CC(C)=NCCN=C(C)CC(C)=O.[Cu]
7. COc1ccc(/C=C/c2ccc3ccccc3[n+]2C)cc1

Result:
118 % of control
103 % of control
110 % of control
98 % of control
98 % of control
101 % of control
115 % of control

* * *

# Test system: L1210 leukemia ip in BDF1 mice, survival T/C
# Procedure Text: NCI In Vivo Anticancer Drug Screen. Data for tumor model L1210 Leukemia (intraperitoneal) in B6D2F1 (BDF1) mice
# Assay Context: endpoint: mean survival time; dose: 100.0 mg/kg/injection; schedule: Q04DX002 (ip); vehicle: Klucel (hydroxypropylcellulose) (HPC); higher = longer survival
Inconclusive results and toxic doses are left out.
Task for the reader: assign each of the following compounds its reported T/C.

Could you report T/C for every entry in the following list?
1. NC(=S)Nc1cccnc1
2. CN1Cc2ccccc2/C=C\c2ccccc21
3. O=C(COc1ccc(Cl)cc1Cl)Nc1ccc2ccccc2c1S(=O)(=O)O
4. O=C(O)c1ccccc1N=Cc1ccc[nH]1
5. CCOC(=O)CNc1cccc(C)c1C
6. Nc1ncc(N=O)c(=O)[nH]1

Result:
1. 97 % of control
2. 103 % of control
3. 94 % of control
4. 115 % of control
5. 100 % of control
6. 96 % of control

Could you report T/C for every entry in the following list?
1. Cc1cccc(NCC(=O)NN)c1
2. CCn1cnc2cc(N=Cc3ccc(N(CCCl)CCCl)cc3Cl)ccc21
3. NNC(=O)CNc1cccc(I)c1
4. COc1ccc(CC(=S)N2CCOCC2)cc1
5. NC(=O)N1c2ccccc2C=Cc2ccccc21
6. Cc1cc2nc(-c3cc4cc(Cl)cc(Cl)c4oc3=O)[nH]c2cc1C

Result:
1. 100 % of control
2. 117 % of control
3. 102 % of control
4. 98 % of control
5. 103 % of control
6. 108 % of control

T/C measured on Nc1ccccc1C(=O)N/N=C/c1ccc(Cl)cc1Cl = 95 % of control

* * *

# System: L1210 leukemia ip in BDF1 mice, survival T/C
# Procedure Text: NCI In Vivo Anticancer Drug Screen. Data for tumor model L1210 Leukemia (intraperitoneal) in B6D2F1 (BDF1) mice
# Assay Context: endpoint: mean survival time; dose: 50.0 mg/kg/injection; schedule: Q01DX009 (ip); vehicle: Klucel (hydroxypropylcellulose) (HPC); higher = longer survival
Toxic doses and inconclusive results are not listed.
Task for the reader: assign each of the following compounds its reported T/C.

// below: answered compounds
- O=c1c(Br)c[nH]cc1Br: 91 % of control
- COC(=O)c1ccccc1N=Nc1ccc(O)c(C(C)C)c1: 98 % of control
- Nc1nc(=S)[nH]c(C(=O)O)c1Oc1ccccc1: 87 % of control

Now, please, on to the next compound.
T/C measured on CC(=O)OCC(OC(C)=O)C1(O)CCC2C3CCC4=CC(=O)CCC4(C)C3CCC21C (centres undefined) = 100 % of control

* * *

# System: L1210 leukemia ip in BDF1 mice, survival T/C
# Procedure Text: NCI In Vivo Anticancer Drug Screen. Data for tumor model L1210 Leukemia (intraperitoneal) in B6D2F1 (BDF1) mice
# Assay Context: endpoint: mean survival time; dose: 400.0 mg/kg/injection; schedule: Q04DX002 (ip); vehicle: saline; higher = longer survival
# Protocol: The antitumor activity of compounds was measured in mice bearing transplantable tumors. Survival or tumor size were measured and the results are expressed as the measurement made in the treated group (T) divided by the measurement made in the vehicle treated control group (C). The tumor model used in this assay is L1210 Leukemia (intraperitoneal) in B6D2F1 (BDF1) mice
Toxic doses and inconclusive results are not listed.
Measurement Name: T/C

// below: answered molecules
• COc1ccc(C)nn1 = 122 % of control
• CC1(C(O)CO)OCCO1 (stereo not given) = 117 % of control
• CCOCCOCCOC(C)Oc1cccc(OC)c1 (stereo not given) = 96 % of control
• Cc1nc2ccccc2s1 = 102 % of control

Now, please, on to the next molecule.
T/C measured on CCOC(=O)C(C)(O)C(C)(Cl)c1ccccc1 (stereo not given) = 114 % of control

* * *

Task for the reader: assign each of the following molecules its reported T/C.
# Test system: L1210 leukemia ip in BDF1 mice, survival T/C
# Procedure Text: NCI In Vivo Anticancer Drug Screen. Data for tumor model L1210 Leukemia (intraperitoneal) in B6D2F1 (BDF1) mice
# Assay Context: endpoint: mean survival time; dose: 50.0 mg/kg/injection; schedule: Q01DX009 (ip); vehicle: saline with Tween-80; higher = longer survival
Toxic doses and inconclusive results are not listed.

// below: answered molecules
• c1ccc2c(c1)Cc1ccccc1CN(CCNC1=NCCN1)C2 = 102 % of control
• CC(C)C(Br)C(Br)c1ccccc1 (centres undefined) = 96 % of control
• CC(C)(CBr)COC(=O)Nc1ccc2ccccc2c1 = 95 % of control
• O=C(CNC(=O)c1ccccc1)N/N=C/c1ccncc1 = 93 % of control
• CC1=NCCc2c1cc1c([nH]c3ccccc31)c2C = 101 % of control

Could you report T/C for every entry in the following list?
1. COc1ccccc1N1CCN(CC(O)COc2ccccc2C(C)=O)CC1 (centres undefined)
2. CC1(C)C(N2CCOCC2)CS1(=O)=O (centres undefined)
3. O=C1C2=C(C(=O)c3ccccc31)C(=O)C1CC=CCC1C2=O (centres undefined)
4. O=[N+]([O-])c1cccc2cccnc12

Result:
["105 % of control", "101 % of control", "106 % of control", "95 % of control"]

Could you report T/C for every entry in the following list?
1. CCCCCCCCCCCCCCCCc1ccc(O)cc1O
2. CCCCCc1ccc(C(=O)O)cc1
3. CC1(N)CCC(C(C)(C)N)CC1 (centres undefined)
4. O=C(Nc1ccc(Cl)c(Cl)c1)O/N=C/c1ccccn1
5. O=C1OC2CC1(O)CC(O)C2O (centres undefined)

Result:
1. 105 % of control
2. 98 % of control
3. 97 % of control
4. 96 % of control
5. 92 % of control

Origin of values: PubChem BioAssay AID248
